Entries and their measured melting point follow.

CCOC(=O)c1ccc(O)c(C#N)c1; 192 to 193 °C

Record Cc1nc(-c2cc(C(=O)O)c(=O)[nH]c2C)cs1 . Reported melting point: 297 to 299 °C

Given item CCCCCCCCCCC[C@@H](O)CCO , the value recorded as its melting point is 59 to 60 °C

Lab note: measured melting point of Nc1ccccc1-c1ccc(C(O)CCC(=O)O)cc1 (stereo unspecified) was 102 to 103 °C

get_value(item= CCCCCCCN(Cc1ccc(CCCCCC)cc1)C(Nc1ccc(C(F)(F)F)cc1)=C1C(=O)COC1=O , readout=melting point) returns 94 to 98 °C

get_value(item= COC(=O)[C@H](Cc1ccc(O)cc1)NC(=O)Cc1ccccc1 , readout=melting point) returns 101 °C

melting point recorded for this molecule, CCOC(=O)c1nc(N)sc1-c1cn2ccc(C)cc2n1 , is 278 to 280 °C

The recorded melting point for O=C(NCCO)/C(=C/c1ccc(OC(F)(F)F)cc1)NC(=O)c1ccc(OCCC(F)(F)F)cc1 is 159 to 160 °C

Recorded values, source a melting point compilation (Tetko et al.; mined from patent text by program, amines drawn as free bases though some values may be those of a salt).
